# MEASURED ON: Serine/threonine-protein kinase PLK4 (Homo sapiens, UniProt O00444)
# Sequence (O00444 whole entry): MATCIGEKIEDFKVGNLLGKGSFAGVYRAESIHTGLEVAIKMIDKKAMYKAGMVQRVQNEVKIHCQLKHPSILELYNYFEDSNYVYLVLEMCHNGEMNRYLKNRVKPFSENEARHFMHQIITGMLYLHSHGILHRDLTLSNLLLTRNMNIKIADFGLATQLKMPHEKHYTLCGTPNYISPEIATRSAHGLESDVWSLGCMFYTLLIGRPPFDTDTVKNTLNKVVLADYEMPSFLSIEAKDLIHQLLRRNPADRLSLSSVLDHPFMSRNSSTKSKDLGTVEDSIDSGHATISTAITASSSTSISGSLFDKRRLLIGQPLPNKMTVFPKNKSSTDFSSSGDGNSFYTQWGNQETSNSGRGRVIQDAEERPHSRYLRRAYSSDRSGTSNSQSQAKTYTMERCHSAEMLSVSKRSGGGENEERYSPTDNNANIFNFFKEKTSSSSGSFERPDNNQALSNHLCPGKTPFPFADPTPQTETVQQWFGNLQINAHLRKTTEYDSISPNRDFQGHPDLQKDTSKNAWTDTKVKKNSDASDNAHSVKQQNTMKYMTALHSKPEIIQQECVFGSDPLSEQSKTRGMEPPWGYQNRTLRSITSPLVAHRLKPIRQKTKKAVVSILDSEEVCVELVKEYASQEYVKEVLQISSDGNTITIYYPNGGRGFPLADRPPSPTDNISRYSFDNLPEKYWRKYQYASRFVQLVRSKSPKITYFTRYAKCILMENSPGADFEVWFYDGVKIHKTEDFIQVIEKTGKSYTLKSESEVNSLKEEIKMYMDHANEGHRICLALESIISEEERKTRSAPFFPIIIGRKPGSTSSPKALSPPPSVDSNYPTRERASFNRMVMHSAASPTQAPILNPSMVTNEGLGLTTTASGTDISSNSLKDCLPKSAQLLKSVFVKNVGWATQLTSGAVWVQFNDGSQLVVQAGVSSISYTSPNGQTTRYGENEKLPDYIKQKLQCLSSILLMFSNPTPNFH
MEASURE: Kd (µM)
State the answer as a number, implicitly in µM.

[Q] Please look up its Kd: CCOc1cc(N2CCC(O)CC2)ccc1Nc1ncc2c(n1)N(C)c1ccccc1C(=O)N2C
[A] 0.6
